- System: Leishmania donovani
- METHOD SUMMARY: Antileishmanial activity against Leishmania donovani promastigotes after 72 hrs
- Assay type: functional, organism-based
READOUT KIND: IC50 (µg/mL)
// note: answer is a bare numeric in µg/mL

// fetch Leishmania donovani IC50 for "CC[C@H]1CN2CCc3cc(O)c(OC)cc3[C@@H]2C[C@@H]1C[C@@]1(O)NCCc2cc(O)c(OC)cc21"
0.4

Lookup "CC[C@H]1CN2CCc3cc(OC)c(OC)cc3[C@@H]2C[C@@H]1C[C@@H]1NCCc2cc(O)c(O)cc21"
7.5

Lookup "CC[C@H]1CN2CCc3cc(OC)c(OC)cc3[C@@H]2C[C@@H]1C[C@H]1NCCc2cc(O)c(OC)cc21"
0.03

Lookup "CC[C@H]1CN2CCc3cc(OC)c(OC)cc3[C@@H]2C[C@@H]1C[C@@H]1NCCc2cc(O)c(OC)cc21"
0.45
